Values were extracted from patent US7259167B2.

Below, each entry is listed with its recorded Redox 2.
Experiment: Cyclic voltammetry, redox potentials
Assay type: physicochemical
Set-up: unit not given here
Settings: 1 mM in acetonitrile, 0.1 M tetrabutylammonium hexafluorophosphate, Ag-AgCl reference
Give the figure only, with no unit attached.

Please look at this molecule and report its Redox 2: O=C1c2cc(OC(F)(F)F)ccc2-n2c1nc1cc(SCCO)ccc1c2=O [WR281525]
−1252

Respond only with Redox 2 recorded for O=C1c2cc(F)ccc2-n2c1nc1c(F)cccc1c2=O [WR281631]
−1219

* * *

Experiment: Solubility of DN49 in various solvents
Assay type: physicochemical
Conditions: Piperidine, organic solvent or mixture
ASSAY_METRIC: solubility

Specify reported solubility for the compound shown: O=C1c2ccccc2-n2c1nc1ncccc1c2=O [DN49]
> 25 mg/mL

* * *

Assay: Solubility of DN49 in various solvents
Format: physicochemical
Details: Pyrrole, organic solvent or mixture
ASSAY_METRIC: solubility

Name the recorded solubility of the item O=C1c2ccccc2-n2c1nc1ncccc1c2=O [DN49] in your answer.
> 25 mg/mL

* * *

Assay: Hemin binding activity assay by 1H NMR (pseudocontact shifts)
Conditions: slope of Δδ v. hemin concentration, DMSO-d6
Listed compounds paired with reported Concentration dependence Δδ
# unit: ppm/mole % | format: bare number

Supply measured Concentration dependence Δδ of COc1ccc2c(c1)C(=O)c1nc3ncccc3c(=O)n1-2 in your reply.
0.119

Identify measured Concentration dependence Δδ associated with O=C1c2cc(F)ccc2-n2c1nc1ncccc1c2=O
0.1366

Answer with the recorded Concentration dependence Δδ of O=C1c2cc([N+](=O)[O-])ccc2-n2c1nc1ncccc1c2=O only.
0.4159

Dear colleague, please send me the reported Concentration dependence Δδ for O=C1c2cc(OC(F)(F)F)ccc2-n2c1nc1ncccc1c2=O when you can.
0.08951

Output Concentration dependence Δδ of O=C1c2ccccc2-n2c1nc1ncccc1c2=O
0.09778

Hello, please tell me recorded Concentration dependence Δδ for this one: O=C1c2ccc(Cl)cc2-n2c1nc1ncccc1c2=O
0.119

* * *

Assay: Solubility of DN49 in various solvents
Type: physicochemical
Conditions: 1,4-dioxane, 80 °C, organic solvent or mixture
ASSAY_METRIC: solubility

Tell me solubility reported for O=C1c2ccccc2-n2c1nc1ncccc1c2=O
> 25 mg/mL

* * *

Test: Solubility of DN49 in various solvents
Type: physicochemical
Conditions: Pyrrolidine, organic solvent or mixture
ASSAY_METRIC: solubility

Output solubility of O=C1c2ccccc2-n2c1nc1ncccc1c2=O [DN49]
> 25 mg/mL

* * *

A collection of molecules and their measured Maximum induced Δδ
Assay: Hemin binding activity assay by 1H NMR (pseudocontact shifts)
Details: hemin induced pseudocontact chemical shift, DMSO-d6
Unit ppm implied. Number only.

Please review the entries below; each comes with its answer.
{"columns": ["MOLECULE", "Maximum induced Δδ (ppm)"],
 "data": [
  ["O=C1c2ccccc2-n2c1nc1ncccc1c2=O [DN49]", 0.558],
  ["O=C1c2cc(F)ccc2-n2c1nc1ncccc1c2=O [DN63]", 0.360],
  ["O=C1c2ccc(Cl)cc2-n2c1nc1ncccc1c2=O [DN48]", 0.389],
  ["O=C1c2cc(OC(F)(F)F)ccc2-n2c1nc1ncccc1c2=O [DN9]", 0.462],
  ["O=C1c2cc([N+](=O)[O-])ccc2-n2c1nc1ncccc1c2=O [DN40]", 1.538]
]}

Note down Maximum induced Δδ recorded for COc1ccc2c(c1)C(=O)c1nc3ncccc3c(=O)n1-2 [DN23]
0.208
